# Measured Target: COS-7/AMY3 (human calcitonin receptor (CTR) and RAMP3) (Homo sapiens, UniProt O60896+P30988)
# Construct: expressed in transfected cells; host or cells: COS-7
# Sequence (P30988 25-474): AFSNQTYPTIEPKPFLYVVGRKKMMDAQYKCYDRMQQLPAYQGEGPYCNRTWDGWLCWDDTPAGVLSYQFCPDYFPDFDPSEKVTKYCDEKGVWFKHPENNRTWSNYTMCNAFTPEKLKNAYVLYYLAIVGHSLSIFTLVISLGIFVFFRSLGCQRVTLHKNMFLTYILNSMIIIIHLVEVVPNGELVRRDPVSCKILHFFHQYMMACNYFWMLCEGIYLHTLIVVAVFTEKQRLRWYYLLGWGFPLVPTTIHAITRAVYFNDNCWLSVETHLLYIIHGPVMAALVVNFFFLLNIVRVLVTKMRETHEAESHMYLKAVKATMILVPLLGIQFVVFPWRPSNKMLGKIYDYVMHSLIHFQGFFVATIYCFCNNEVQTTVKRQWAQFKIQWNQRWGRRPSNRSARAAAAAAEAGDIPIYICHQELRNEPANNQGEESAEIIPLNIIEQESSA
# Sequence (O60896 24-148): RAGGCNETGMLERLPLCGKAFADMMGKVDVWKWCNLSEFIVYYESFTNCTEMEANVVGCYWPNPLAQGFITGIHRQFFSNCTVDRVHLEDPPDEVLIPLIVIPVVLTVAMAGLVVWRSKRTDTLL
# Run Description: Amylin Receptor cAMP Assay II
# Type: cell-based
# Assay Setup: values marked **: Amylin Receptor cAMP Assay II; COS-7/AMY3 cells, cAMP dynamic 2 kit, 30 min; read-out: Amylin Receptor cAMP Stimulation Activity: EC50
Quick list: pEC50 per entry.
Interpret pEC50 as the negative base-10 log of the concentration measured in mol/L.

[[record]]
molecule = "COc1c(F)c(F)cc2c1CC[C@H]2Nc1nccc2cc(-c3c4c(nc(CCc5ccc(F)cc5)c3-c3n[nH]c(=O)o3)[C@@H]3CCCN3C4=O)sc12"
numeric_result = 9.10

[[record]]
molecule = "O=C1c2c(nc(CCc3ccc(F)cc3)c(-c3noc(=O)[nH]3)c2-c2ccc3c(NCc4ccc(F)c(F)c4)nccc3c2)[C@@H]2CCCN12"
numeric_result = 6.40

[[record]]
molecule = "COc1c(F)ccc2c1CC(F)(F)[C@H]2Nc1nccc2cc(-c3c4c(nc(CCc5ccc(F)cc5)c3-c3n[nH]c(=O)o3)C35CC(CN3C4=O)C5)sc12"
numeric_result = 8.80

[[record]]
molecule = "COc1cccc2c1CC[C@H]2Nc1nccc2cc(-c3c4c(nc(CCc5ccc(F)cc5)c3-c3n[nH]c(=O)o3)[C@@H]3COCCN3C4=O)sc12 [Compound 174]"
numeric_result = 7.50

[[record]]
molecule = "COc1c(F)ccc2c1CC(F)(F)[C@H]2Nc1nc(C)cc2cc(-c3c4c(nc(CCc5ccc(F)cc5)c3-c3n[nH]c(=O)o3)C35CC(CN3C4=O)C5)sc12"
numeric_result = 9.57

[[record]]
molecule = "COc1nccc2c1CC[C@H]2Nc1nccc2cc(-c3c4c(nc(CCc5ccc(F)cc5)c3-c3n[nH]c(=O)o3)C35CC(CN3C4=O)C5)sc12"
numeric_result = 8.13


The molecule listed as O=C(c1ccc(-c2c3c(nc(CCc4ccc(F)cc4)c2-c2noc(=O)[nH]2)[C@@H]2CCCN2C3=O)s1)N1CCCC1c1ccc(F)c(F)c1 (stereo partly shown) shows pEC50 equal to 6.60

The molecule listed as CC1(C)Oc2cc(-c3c4c(nc(CCc5ccc(F)cc5)c3-c3n[nH]c(=O)o3)[C@@H]3CCCN3C4=O)ccc2N(Cc2ccc(F)cn2)C1=O shows pEC50 equal to 7.43

The molecule listed as COc1c(F)ccc2c1C[C@@H](F)[C@H]2Nc1nc(C)cc2cc(-c3c4c(nc(CCc5ccc(F)cc5)c3-c3n[nH]c(=O)o3)[C@@H]3CCCN3C4=O)sc12 shows pEC50 equal to 9.07

The molecule listed as O=C1c2c(nc(CCc3ccc(F)cc3)c(-c3noc(=O)[nH]3)c2-c2ccc3c(c2)CC[C@H]3OCc2ccc(F)c(F)c2)[C@@H]2CCCN12 shows pEC50 equal to 5.95

The molecule listed as COc1cc(F)cc2c1CC[C@H]2Nc1nc(C)cc2cc(-c3c4c(nc(CCc5ccc(F)cc5)c3-c3n[nH]c(=O)o3)C35CC(CN3C4=O)C5)sc12 shows pEC50 equal to 9.13

The molecule listed as COc1c(F)ccc2c1CC[C@H]2Nc1nccc2cc(-c3c4c(nc(CCc5ccc(F)cc5)c3-c3n[nH]c(=O)o3)C35CC(CN3C4=O)C5)sc12 shows pEC50 equal to 9.67

The molecule listed as COc1c(F)ccc2c1CC[C@H]2Nc1nc(C)cc2cc(-c3c4c(nc(CCc5ccc(F)cc5)c3-c3n[nH]c(=O)o3)[C@@H]3COCCN3C4=O)sc12 shows pEC50 equal to 9.20
